System: PC-3 prostate
Test: NCI tumour cell line growth inhibition, 48 h; in the data active = GI50 below about 0.43 µM; inactive = the rest
Give your call using only these classes: active, inactive

[[record]]
molecule = "Cn1c2c(c3ccccc31)CCN1C[C@@H]3CCCC[C@H]3C[C@@H]21"
group = "inactive"

[[record]]
molecule = "Nc1c(C(=O)Nc2cccc(Cl)c2)sc2nc3c(cc12)C(O)CCC3 (stereo not drawn)"
group = "active"

[[record]]
molecule = "O=C(O)c1ccc(CSc2nc3ccccc3[nH]2)cc1"
group = "inactive"

[[record]]
molecule = "Cc1ccc2ncnc(N(C)C3CCCCC3)c2c1"
group = "inactive"

[[record]]
molecule = "COc1cc2c(Nc3ccc(-c4ccc(N)cc4)cc3)ncnc2c(OC)c1OC"
group = "inactive"


[Q] How was O=S(=O)(NCCNc1nccc(-c2c(-c3ccc(F)cc3)nc3sccn23)n1)c1ccc(O)cc1 classified in this test?
[A] inactive

[Q] How was COc1ccc(N=Nc2ccc(O)c(=O)cc2)cc1 classified in this test?
[A] inactive

[Q] How was COc1ccccc1CNCCCN1C(=O)c2ccc3c4c(ccc(c24)C1=O)C(=O)N(CCCNCCCCNCCCN)C3=O classified in this test?
[A] inactive

* * *

Tested on: NCI-H460 lung
Test: NCI tumour cell line growth inhibition, 48 h
Response key: criterion met means TGI >= 10 µM; criterion not met means TGI < 10 µM.

[[record]]
molecule = "COc1cc(-c2oc3c(OC)c(O)c(OC)c(O)c3c(=O)c2OC)cc(OC)c1OC"
group = "criterion met"


[Q] Confirm if TGI reported for the molecule Cc1ccc(NC(=O)c2cccc(OP(=O)(Nc3ccc(C)cc3)Nc3ccc(C)cc3)c2)cc1 is 10 µM or above.
[A] criterion met

[Q] Confirm if TGI reported for the molecule O=S(=O)(NCCNc1nccc(-c2c(-c3ccc(F)cc3)nc3sccn23)n1)c1ccc(O)cc1 is 10 µM or above.
[A] criterion met

[Q] Confirm if TGI reported for the molecule CCOc1cc(Cl)c(C(C)NC(=O)c2cccc(OC)c2)cc1OCC (stereo not given) is 10 µM or above.
[A] criterion met

[Q] Confirm if TGI reported for the molecule O=C(Cc1cc(O)ccc1O)NO is 10 µM or above.
[A] criterion met

[Q] Confirm if TGI reported for the molecule CN1C(=O)C(=Cc2ccc(Br)cc2)C(=O)N(C)C1=O is 10 µM or above.
[A] criterion met

* * *

Test system: COLO 205 colon
Test: NCI tumour cell line growth inhibition, 48 h
Entries and their measured TGI follow.

[[record]]
molecule = "c1cc[n+](Cc2c3ccccc3cc3c2ccc2ccccc23)cc1"
value_observed = "5.24 µM"

[[record]]
molecule = "Cc1ccc(S(=O)(=O)c2ccc(C)cc2[N+](=O)[O-])c([N+](=O)[O-])c1"
value_observed = "> 100 µM"

[[record]]
molecule = "Cc1[nH]c(=O)n2c(C)nnc2c1C(=O)O"
value_observed = "> 100 µM"

[[record]]
molecule = "CC(=O)N1C(c2[nH]c3ccccc3c2Cc2ccccc2)CCN1c1ccccc1 (stereo not given)"
value_observed = "> 10 µM"

[[record]]
molecule = "Cc1ccccc1N(CCC#N)C1=NN(C(=O)CC(=O)Nc2ccc(Cl)cc2)C(c2ccccc2)C1 (stereo not given)"
value_observed = "> 100 µM"


[Q] Input O=C1CC(n2ccnc2)c2c(Cl)sc(Cl)c21 (stereo not given) , output reported TGI.
[A] 33.8 µM

[Q] Input CN(C)CCC(=O)[C@@]1(O)CC[C@H]2[C@@H]3CC=C4C[C@@H](O)CC[C@]4(C)[C@H]3CC[C@@]21C , output reported TGI.
[A] 32.9 µM

[Q] Input CCOC(=O)/C(C1=NCCN1C)=C(\O)c1ccccc1 , output reported TGI.
[A] > 100 µM

[Q] Input O=C(CCN1CCCCC1)c1csc2ccccc12 , output reported TGI.
[A] > 100 µM

[Q] Input CC(C)CC(N)C(=O)NC(CNC(CCC(N)=O)C(=O)NC(CC(C)C)C(=O)NC(CC(C)C)C(=O)O)Cc1ccc2ccccc2c1 (stereo not given) , output reported TGI.
[A] > 10 µM

[Q] Input Cc1cn(C2CC(O)C(Cn3nncc3Cn3cnc4c(N)ncnc43)O2)c(=O)[nH]c1=O (stereo not given) , output reported TGI.
[A] > 100 µM

[Q] Input CCOC(=O)C#Cc1cccc(C#CC(=O)OCC)c1 , output reported TGI.
[A] 9.92 µM

[Q] Input CC(=O)OC1C(O)C(C)OC(OC2C(OC(=O)C3CCC4C(C3)OC3(CC(OC(=O)/C=C/c5ccccc5)C(C)CO3)C43CO3)OC(C)C(O)C2OC(C)=O)C1O (stereo not given) , output reported TGI.
[A] 0.0181 µM

[Q] Input CCOC(=O)C(C(=O)OCC)=C1C=C(c2ccccc2)c2ccccc21 , output reported TGI.
[A] > 100 µM

[Q] Input CC(C)N(C(C)C)S(=O)(=O)CC12CCC(C/C1=N\O)C2 (stereo not given) , output reported TGI.
[A] > 100 µM

[Q] Input COc1ccc(N=Nc2ccc(O)c(=O)cc2)cc1 , output reported TGI.
[A] > 100 µM

[Q] Input CC(C)=CCC/C(C)=C/Cc1c2c(c3oc(-c4ccc(O)c(O)c4)c(O)c(=O)c3c1O)C=CC(C)(C)O2 , output reported TGI.
[A] 5.33 µM

* * *

Entries and their measured TGI follow.
System: HCT-116 colon
Experiment: NCI tumour cell line growth inhibition, 48 h

[[record]]
compound = "COC(=O)C1c2cc3c(c(O)c2CCC1(C)O)C(=O)c1c(O)cc2c(c1C3=O)OC1OC2(C)C(O)C(N(C)C)C1O (stereo not given)"
value_observed = "24.2 µM"

[[record]]
compound = "CCOC(=O)c1sc2nc(SC)nc3c2c1NC(=O)CN3c1ccc(F)cc1"
value_observed = "> 100 µM"

[[record]]
compound = "O=[N+]([O-])C(C(Cl)=C(Cl)Cl)=C(N1CCCCC1)N1CCCCC1"
value_observed = "> 100 µM"

[[record]]
compound = "NC1=NC(c2ccc(Cl)cc2)=CC(c2cccc(Cl)c2)S1 (stereo not given)"
value_observed = "> 100 µM"

[[record]]
compound = "CC(=O)NC1C(OCc2ccccc2)OC(CO)C(O)C1OCC(=O)NC(C(=O)NC(CCC(=O)NCCCCCC(=O)Nc1ccc2c(c1)CN1C(=O)c3ccccc3C1=N2)C(N)=O)C(C)C (stereo not given)"
value_observed = "> 100 µM"


[Q] Input COC(=O)c1cc(/C=C/C(=O)Cc2ccccc2)cn1S(=O)(=O)c1ccccc1 , output reported TGI.
[A] > 100 µM

[Q] Input CCCCCc1cc(/C=C2/N=C(c3ccc[nH]3)C=C2OC)[nH]c1C , output reported TGI.
[A] < 0.0387 µM

[Q] Input CN1N=C(c2ccncc2)OC1c1cccc(F)c1 (stereo not given) , output reported TGI.
[A] > 100 µM

[Q] Input CNC(=O)O/N=C1\N(C)CN(c2ccccc2)C12CCN(CCCC(=O)c1ccc(F)cc1)CC2 , output reported TGI.
[A] > 100 µM

[Q] Input Cn1c2ncccc2n2c(=O)cc(O)cc12 , output reported TGI.
[A] > 100 µM

* * *

Entries and their measured log10 of TGI follow.
Tested on: SK-MEL-28 melanoma
Assay: NCI tumour cell line growth inhibition, 48 h
Base-10 log of TGI, unit µM.

Example molecules with recorded log10 of TGI:
[[record]]
molecule = "COc1ccc(-c2nc3sccn3c2-c2ccnc(NCCNS(=O)(=O)c3ccc(C(F)(F)F)cc3)n2)cc1"
value_observed = 1.74

[[record]]
molecule = "CCCCCCCCCN=C(N)c1ccc(N2CCN(c3ccc(C(N)=NCCCCCCCCC)cc3)CC2)cc1"
value_observed = 0.63

[[record]]
molecule = "CC1(C)CC[C@]23CC[C@]4(C)[C@H](CC[C@@H]5[C@@]6(C)CCCNC(C)(C)[C@@H]6CC[C@]54C)[C@H]2[C@H]1OC3"
value_observed = 0.50


[Q] Input CC(=O)OC1C(O)C(C)OC(OC2C(OC(=O)C3CCC4C(C3)OC3(CC(OC(=O)/C=C/c5ccccc5)C(C)CO3)C43CO3)OC(C)C(O)C2OC(C)=O)C1O (centres undefined) , output reported log10 of TGI.
[A] -1.52

[Q] Input CCOC(=O)C(C(=O)OCC)c1cc(-c2cc3ccccc3o2)oc(=O)c1C#N , output reported log10 of TGI.
[A] 1.80

[Q] Input Clc1nc(Cl)c2ncn(-c3ccccc3)c2n1 , output reported log10 of TGI.
[A] 1.24

* * *

Tested on: HCT-116 colon
Test: NCI tumour cell line growth inhibition, 48 h; in the data active = GI50 below about 0.43 µM; inactive = the rest
Give your call using only these classes: active, inactive

[[record]]
compound = "CC[C@]12C=CCN3CC[C@@]4(c5ccc(OC)cc5N(C)[C@H]4[C@@](O)(C(=O)OC)[C@@H]1OC(=O)CCC(=O)O[C@H]1CC[C@H]4[C@@H]5CCC6=CC(=O)CC[C@@H]6[C@H]5CC[C@]14C)[C@@H]32"
group = "inactive"

[[record]]
compound = "CC(=O)OC(C(=O)[O][Ge]([CH3])([CH3])[CH3])c1ccccc1 (stereo not drawn)"
group = "inactive"

[[record]]
compound = "Cc1[nH]c(C(=O)Nc2cccc(OC3CCNCC3)c2)c(Cl)c1Cl"
group = "inactive"

[[record]]
compound = "CC(C)C[C@H](NC(=O)[C@@H](Cc1ccccc1)n1ccc(Nc2ccccc2)cc1=O)B(O)O"
group = "active"

[[record]]
compound = "COc1ccc(-c2cc(=O)c3c(OC)c4ccoc4c(/C=C/C=O)c3o2)cc1"
group = "inactive"

[[record]]
compound = "CCCCCCCCCCCCC(O)C1CCC(C(O)CCCCC(O)CCCCCC2CC(CC(C)=O)C(=O)O2)O1 (stereo not drawn)"
group = "inactive"

[[record]]
compound = "CC1(C)CC[C@]23CC[C@]4(C)[C@H](CC[C@@H]5[C@@]6(C)CCCNC(C)(C)[C@@H]6CC[C@]54C)[C@H]2[C@H]1OC3"
group = "inactive"


// switching to the query compound
[Q] How was CS(=O)(=O)Nc1cc(-c2ccc3ncc(C#N)c(Nc4ccc(F)c(Cl)c4)c3c2)cnc1Cl classified in this test?
[A] active
